measurement_protocol: Cytotoxicity on murine cells
Assay type: cell-based
experimental_context: mouse, J774A.1 macrophages
reported_property: CC50 at 24 h (µM)
A number alone suffices; assume µM.

For the molecule O=C(Cn1ccnc1[N+](=O)[O-])NCc1ccccc1 [BENZ, benznidazole] , give its measured CC50 at 24 h value.
400
